Target: human STING variant R232H (Homo sapiens)
Sequence (Q86WV6 whole entry, stated change not applied): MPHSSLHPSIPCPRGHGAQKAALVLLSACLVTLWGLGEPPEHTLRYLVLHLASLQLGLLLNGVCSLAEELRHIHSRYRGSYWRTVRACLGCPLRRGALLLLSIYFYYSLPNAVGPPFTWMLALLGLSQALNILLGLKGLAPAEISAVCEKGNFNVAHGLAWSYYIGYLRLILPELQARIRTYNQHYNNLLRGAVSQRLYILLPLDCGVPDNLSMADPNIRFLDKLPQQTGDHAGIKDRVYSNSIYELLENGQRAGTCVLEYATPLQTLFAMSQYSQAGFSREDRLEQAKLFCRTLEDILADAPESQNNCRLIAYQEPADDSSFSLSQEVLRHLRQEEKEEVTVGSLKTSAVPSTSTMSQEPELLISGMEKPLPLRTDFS
Test: THP1-Blue ISG IRF-inducible SEAP reporter assay, STING R232H-variant
Conditions: THP1-Blue ISG hSTING KO cells expressing STING R232H; 24 hours incubation
// reported EC50 for each item listed
measure: EC50

INSERT INTO assay_data (compound, result) VALUES
  ('Cc1cc(F)cc2c(-c3cccc4nn(C)cc34)nn(-c3ccc(N4CCC(C(=O)O)CC4)nc3)c12 [compound 4]', '300 nM'),
  ('Cc1cc(Cl)cc2c(-c3cccc4nn(C)cc34)nn(-c3ccc(N4C[C@@H]5[C@H](C4)[C@H]5C(=O)O)nc3)c12 [compound 11]', '900 nM'),
  ('Cc1cc(Cl)cc2c(-c3cccc4nn(C)cc34)nn(-c3ccc(N4CCC(C(=O)O)CC4)nc3)c12 [compound 10]', '2200 nM'),
  ('Cc1c(Cl)ccc2c(-c3cccc4nn(C)cc34)nn(-c3ccc(N4CCC(S(C)(=O)=O)CC4)nc3)c12 [compound 2]', '300 nM'),
  ('Cc1cc(F)cc2c(-c3cccc4nn(C)cc34)nn(-c3ccc(N4C[C@@H]5[C@H](C4)[C@H]5C(=O)O)nc3)c12 [compound 5]', '300 nM'),
  ('Cc1c(Cl)c(F)cc2c(-c3cccc4nn(C)cc34)nn(-c3ccc(N4CCC(C(=O)O)CC4)nc3)c12 [compound 12]', '300 nM'),
  ('Cc1cc(F)cc2c(-c3cccc4nn(C)cc34)nn(-c3ccc(N4CCS(=O)(=O)CC4)nc3)c12 [Example #1]', '700 nM'),
  ('Cc1cc(F)cc2c(-c3cccc4nn(C)cc34)nn(-c3ccc(N4CCN(C=O)CC4)nc3)c12 [Example #3]', '600 nM'),
  ('Cc1c(Cl)ccc2c(-c3cccc4nn(C)cc34)nn(-c3ccc(N4C[C@@H]5[C@H](C4)[C@H]5C(=O)O)nc3)c12 [compound 8]', '100 nM');

###

// reported pEC50 for each item listed
Target: human STING variant R293Q (Homo sapiens, UniProt Q86WV6, H232R/R293Q)
Sequence (Q86WV6 whole entry H232R/R293Q): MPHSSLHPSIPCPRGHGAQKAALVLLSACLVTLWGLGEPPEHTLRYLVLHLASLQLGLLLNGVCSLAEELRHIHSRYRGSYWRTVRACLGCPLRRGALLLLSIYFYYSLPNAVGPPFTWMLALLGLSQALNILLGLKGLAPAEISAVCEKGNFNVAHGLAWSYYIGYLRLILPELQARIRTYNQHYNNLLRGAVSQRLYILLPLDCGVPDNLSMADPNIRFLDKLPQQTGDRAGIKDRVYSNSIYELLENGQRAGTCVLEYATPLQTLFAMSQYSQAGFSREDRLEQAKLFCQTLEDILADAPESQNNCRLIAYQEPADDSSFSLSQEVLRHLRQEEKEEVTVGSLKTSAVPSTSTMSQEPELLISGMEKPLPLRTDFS
Experiment: THP1-Blue ISG IRF-inducible SEAP reporter assay, STING R293Q-variant
Conditions: THP1-Blue ISG hSTING KO cells expressing STING R293Q; 24 hours incubation
pEC50: −log10 of the molar value.
measure: pEC50

INSERT INTO results (query_smiles, readout_number) VALUES
  ('Cc1cc(F)cc2c(-c3cccc4nn(C)cc34)nn(-c3ccc(N4CCS(=O)(=O)CC4)nc3)c12', 5.66),
  ('Cc1cc(F)cc2c(-c3cccc4nn(C)cc34)nn(-c3ccc(N4CCC(C(=O)O)CC4)nc3)c12', 6.30),
  ('Cc1c(Cl)c(F)cc2c(-c3cccc4nn(C)cc34)nn(-c3ccc(N4CCC(C(=O)O)CC4)nc3)c12', 6.22),
  ('Cc1c(Cl)ccc2c(-c3cccc4nn(C)cc34)nn(-c3ccc(N4CCC(S(C)(=O)=O)CC4)nc3)c12', 6.15);

###

Target: human STING variant HAQ (Homo sapiens, UniProt Q86WV6, G230A/H232R/R293Q/R71H)
Construct: expressed in transfected cells; host or cells: THP1-Blue ISG: either parental cells (endogenous HAQ) or hSTING KO clone retrovirally transduced with HAQ
Sequence (Q86WV6 whole entry R71H/G230A/H232R/R293Q): as the sequence (Q86WV6 whole entry H232R/R293Q) above, with R71H, G230A counted along it
Test: THP1-Blue ISG IRF-inducible SEAP reporter assay, STING HAQ-variant
Format: cell-based
Settings: THP1-Blue ISG cells expressing STING HAQ (parental or re-introduced); 24 hours incubation; SEAP OD 620 nm
pEC50: −log10 of the molar value.
Could you label it y if measured pEC50 is 6 or higher, and n otherwise?

INSERT INTO assay_data (query_smiles, assigned_class) VALUES
  ('Cc1cc(Cl)cc2c(-c3cccc4nn(C)cc34)nn(-c3ccc(N4C[C@@H]5[C@H](C4)[C@H]5C(=O)O)nc3)c12', 'n'),
  ('Cc1cc(Cl)cc2c(-c3cccc4nn(C)cc34)nn(-c3ccc(N4CCC(C(=O)O)CC4)nc3)c12', 'n'),
  ('Cc1cc(F)cc2c(-c3cccc4nn(C)cc34)nn(-c3ccc(N4C[C@@H]5[C@H](C4)[C@H]5C(=O)O)nc3)c12', 'y'),
  ('Cc1cc(F)cc2c(-c3cccc4nn(C)cc34)nn(-c3ccc(N4CCS(=O)(=O)CC4)nc3)c12', 'n');

###

Target: human STING variant HAQ (Homo sapiens, UniProt Q86WV6, G230A/H232R/R293Q/R71H)
Assay: THP1-Blue ISG IRF-inducible SEAP reporter assay, STING HAQ-variant
Settings: THP1-Blue ISG cells expressing STING HAQ (parental or re-introduced); 24 hours incubation; SEAP OD 620 nm
pEC50: −log10 of the molar value.
measure: pEC50

INSERT INTO assay_data (molecule, measure, readout_number) VALUES
  ('Cc1c(Cl)ccc2c(-c3cccc4nn(C)cc34)nn(-c3ccc(N4CCC(S(C)(=O)=O)CC4)nc3)c12 [compound 2]', 'pEC50', 6.05),
  ('Cc1c(F)ccc2c(-c3cccc4nn(C)cc34)nn(-c3ccc(N4CCC(C(=O)O)CC4)nc3)c12 [compound 7]', 'pEC50', 6.10),
  ('Cc1cc(F)cc2c(-c3cccc4nn(C)cc34)nn(-c3ccc(N4CCC(C(=O)O)CC4)nc3)c12 [compound 4]', 'pEC50', 6.15);
